Catalogue of compounds with associated MIC L.m
Tested on: Listeria monocytogenes (ATCC-15313)
Experiment: MIC by agar-dilution method against Listeria monocytogenes
Format: cell-based
Details: Listeria monocytogenes ATCC-15313; agar dilution, 37 °C, 24 h
Experimental: In vitro antimicrobial activity of the prepared compounds against four bacteria was evaluated by the conventional agar-dilution method. Ciprofloxacin was selected as a reference standard. […] The in vitro antibacterial activity for synthesized compounds 4a–m were evaluated using the agar-dilution method. […]

{"compound": "Cc1nn(-c2ccc(F)cc2)c(Cl)c1C(=O)Oc1ncn(-c2ccccc2)n1 [Compound 4b]", "measurement target": "Listeria monocytogenes (ATCC-15313)", "MIC L.m": ">128 µg/mL"}
{"compound": "Cc1ccc(-n2cnc(OC(=O)c3c(C)nn(-c4ccccc4)c3Cl)n2)cc1 [Compound 4k]", "measurement target": "Listeria monocytogenes (ATCC-15313)", "MIC L.m": "8 µg/mL"}
{"compound": "Cc1nn(-c2ccccc2)c(Cl)c1C(=O)Oc1ncn(-c2ccccc2)n1 [Compound 4a]", "measurement target": "Listeria monocytogenes (ATCC-15313)", "MIC L.m": "16 µg/mL"}
{"compound": "Cc1ccc(-n2cnc(OC(=O)c3c(C)nn(-c4ccc(F)cc4)c3Cl)n2)cc1 [Compound 4l]", "measurement target": "Listeria monocytogenes (ATCC-15313)", "MIC L.m": "64 µg/mL"}
{"compound": "Cc1nn(-c2ccc(Cl)cc2)c(Cl)c1C(=O)Oc1ncn(-c2ccc(F)cc2)n1 [Compound 4g]", "measurement target": "Listeria monocytogenes (ATCC-15313)", "MIC L.m": "64 µg/mL"}
{"compound": "Cc1nn(-c2ccc(Cl)cc2)c(Cl)c1C(=O)Oc1ncn(-c2ccccc2)n1 [Compound 4c]", "measurement target": "Listeria monocytogenes (ATCC-15313)", "MIC L.m": ">128 µg/mL"}
{"compound": "Cc1nn(-c2ccc(F)cc2)c(Cl)c1C(=O)Oc1ncn(-c2ccc(F)cc2)n1 [Compound 4f]", "measurement target": "Listeria monocytogenes (ATCC-15313)", "MIC L.m": ">128 µg/mL"}
{"compound": "Cc1nn(-c2ccccc2)c(Cl)c1C(=O)Oc1ncn(-c2ccc(F)cc2)n1 [Compound 4e]", "measurement target": "Listeria monocytogenes (ATCC-15313)", "MIC L.m": "32 µg/mL"}
